Values compiled from ChEMBL document CHEMBL1201862.

Test system: IGROV-1
Assay: NCI tumour cell line growth inhibition, 48 h
Calls of active or inactive are those of the source. Rule as the data show it: active = GI50 up to about 1.1 µM and inactive = higher.
Overview of recorded GI50 for various molecules

C=CCN1CN(C2CCCCC2)CSC1=S; 8.34 µM (inactive)
CN1CC2(CCCCC2)C(O)C12C=CCCC2 (stereo not drawn); > 100 µM (inactive)
O=C1/C(=C/c2ccc(Cl)cc2)CCC1CCN1CCOCC1 (stereo not drawn); > 100 µM (inactive)
O=S1(=O)c2ccccc2NC(=S)N1c1ccccc1; 2.45 µM (inactive)
CC(=O)Nc1ccc2cc(C)c(O)nc2n1; > 100 µM (inactive)
CCN(CC)C(=S)SC [METHYLDIETHYL CARBAMODITHIOATE]; > 100 µM (inactive)
O=C(Nc1sccc1S(=O)(=O)c1ccccc1)c1cccnc1; 9.02 µM (inactive)

Input line: Entry under review: "O=c1[nH]cc(/N=C/c2cc(Cl)cc(Cl)c2O)c(=O)[nH]1" . Reported GI50?
Output line: 17 µM (inactive)

----------
Test system: UACC-62
Experiment: NCI tumour cell line growth inhibition, 48 h
Calls of active or inactive are those of the source. No stated cut-off is given here; in the data, active = GI50 up to about 1.1 µM and inactive = higher.
// classify into TRUE (active), FALSE (inactive)

Input line: // return assay outcome for "CN(O)C(=S)c1ccccc1"
Output line: FALSE

Input line: // return assay outcome for "O=c1/c(=C/c2ccc(-c3ccc(Cl)cc3Cl)o2)sc2n1[C@@H](c1ccc(Cl)cc1)C=C(c1cc(F)c(Cl)cc1Cl)N=2"
Output line: FALSE

Input line: // return assay outcome for "Cc1c(C(=O)/C=C/C=C/c2ccccc2)[n+]([O-])c2ccccc2[n+]1[O-]"
Output line: FALSE

Input line: // return assay outcome for Cn1nc(/C=C\C(=O)N2CC(CCl)c3c2cc(N)c2ccccc32)cc1/C=C/C(=O)N1CC(CCl)c2c1cc(N)c1ccccc21 (centres undefined)
Output line: TRUE

----------
System: OVCAR-3
Assay: NCI tumour cell line growth inhibition, 48 h
Active and inactive are the calls of the source. Rule as the data show it: active = GI50 up to about 1.1 µM and inactive = higher.
Overview of recorded GI50 for various compounds

Field: example entries. Status: answers known.
C=C1C[C@@H](O)[C@@H](Br)C(C)(C)[C@@]12C=CC(O)(CBr)CC2 (stereo not given in full); > 100 µM (inactive)
N#Cc1ncc(C(Cl)Cl)nc1Cl; 2.12 µM (inactive)

Input line: Entry under review: CC(C)CC(NC=O)C(=O)NC(Cc1ccccc1)NC(=O)CNC(=O)C(C)NC(=O)OC(C)(C)C (stereo not given) . Reported GI50?
Output line: > 100 µM (inactive)

Input line: Entry under review: O=C1/C(=C/c2ccc(Cl)cc2)CCC1CCN1CCOCC1 (stereo not given) . Reported GI50?
Output line: 59.3 µM (inactive)

Input line: Entry under review: COc1cc(S(=O)(=O)Nc2ccc(-c3csc(N4C(=O)CSC4c4cccc(Oc5ccccc5)c4)n3)cc2)ccc1Cl (stereo not given) . Reported GI50?
Output line: 64.3 µM (inactive)

Input line: Entry under review: COc1cc(C(C)O)c[n+](Cc2ccccc2)c1 (stereo not given) . Reported GI50?
Output line: > 100 µM (inactive)

Input line: Entry under review: "CC1=CC(=O)/C(=C/n2c(=S)[nH]c3ccc([N+](=O)[O-])cc32)C(=O)O1" . Reported GI50?
Output line: > 100 µM (inactive)
